Reference source for all entries: patent US5691311A

Each entry below carries its recorded Ki.
# target.entity: human α-thrombin (Homo sapiens, UniProt P00734)
# Construct: proteolysis of the B-chain of α-thrombin; human α-thrombin-catalyzed hydrolysis of Spectrozyme TH
# protocol.summary: Thrombin-catalyzed hydrolysis of Spectrozyme TH
# Assay type: biochemical
# condition.notes: Ki, method of Example 9, Spectrozyme TH

| molecule | inequality.symbol | Ki (nM) |
| --- | --- | --- |
| CC[C@H](C)[C@H](NC(=O)[C@H](CCC(=O)O)NC(=O)[C@H](CCC(=O)O)NC(=O)[C@H](Cc1ccccc1)NC(=O)[C@H](CC(=O)O)NC(=O)CNC(=O)[C@H](CC(N)=O)NC(=O)CNC(=O)CNC(=O)CNC(=O)CNC(=O)[C@@H]1CCCN1C(=O)C[C@H](CCCNC(=N)N)NC(=O)[C@@H]1CCCN1C(=O)[C@H](N)Cc1ccccc1)C(=O)N1CCC[C@H]1C(=O)N[C@@H](CCC(=O)O)C(=O)N[C@@H](CCC(=O)O)C(=O)N[C@@H](Cc1ccc(O)cc1)C(=O)N[C@@H](CC(C)C)C(=O)O [Hirulog-18b] | = | 4.6 |
| CC[C@H](C)[C@H](NC(=O)[C@H](CCC(=O)O)NC(=O)[C@H](CCC(=O)O)NC(=O)[C@H](Cc1ccccc1)NC(=O)[C@H](CC(=O)O)NC(=O)CNC(=O)[C@H](CC(N)=O)NC(=O)CNC(=O)CNC(=O)CNC(=O)CNC(=O)CNC(=O)C[C@H](CCCNC(=N)N)NC(=O)[C@@H]1CCCN1C(=O)[C@H](N)Cc1ccccc1)C(=O)N1CCC[C@H]1C(=O)N[C@@H](CCC(=O)O)C(=O)N[C@@H](CCC(=O)O)C(=O)N[C@@H](Cc1ccc(O)cc1)C(=O)N[C@@H](CC(C)C)C(=O)O [Hirulog-18a] | = | 7.4 |
| CC[C@H](C)[C@H](NC(=O)[C@H](CCC(=O)O)NC(=O)[C@H](CCC(=O)O)NC(=O)[C@H](Cc1ccccc1)NC(=O)[C@H](CC(=O)O)NC(=O)CNC(=O)[C@H](CC(N)=O)NC(=O)CNC(=O)CNC(=O)CNC(=O)CNC(=O)CNC(=O)CN(C)C(=O)[C@H](CCCNC(=N)N)NC(=O)[C@@H]1CCCN1C(=O)[C@H](N)Cc1ccccc1)C(=O)N1CCC[C@H]1C(=O)N[C@@H](CCC(=O)O)C(=O)N[C@@H](CCC(=O)O)C(=O)N[C@@H](Cc1ccc(O)cc1)C(=O)N[C@@H](CC(C)C)C(=O)O [Hirulog-10] | > | 2000 |
| CC[C@H](C)[C@H](NC(=O)[C@H](CCC(=O)O)NC(=O)[C@H](CCC(=O)O)NC(=O)[C@H](Cc1ccccc1)NC(=O)[C@H](CC(=O)O)NC(=O)CNC(=O)[C@H](CC(N)=O)NC(=O)CNC(=O)CNC(=O)CNC(=O)CNC(=O)[C@@H](NC(=O)C[C@H](CCCNC(=N)N)NC(=O)[C@@H]1CCCN1C(=O)[C@H](N)Cc1ccccc1)C(C)C)C(=O)N1CCC[C@H]1C(=O)N[C@@H](CCC(=O)O)C(=O)N[C@@H](CCC(=O)O)C(=O)N[C@@H](Cc1ccc(O)cc1)C(=O)N[C@@H](CC(C)C)C(=O)O [Hirulog-18c] | = | 205 |
